B1: HDV Ribozyme (parent)
chain: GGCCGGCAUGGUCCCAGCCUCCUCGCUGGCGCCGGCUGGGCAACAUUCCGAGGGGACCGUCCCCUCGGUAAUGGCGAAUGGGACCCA

Variants of: B1
Assay: self-cleavage, relative activity (ratio to wild type); higher = more cleavage; co-transcriptional
Each entry gets N if its self-cleavage stays under 0.2, and Y if its self-cleavage is 0.2 or above.

Answered cases to consult:
GGCCGGCAUGGUCCCAGCCUCCUCGCUGGCGCCGGGUGGGCAACAUUCCGAGGGGACCGUACCCUCGGUAAUGGCGAAUGGGACCCA N
GGCCGGCAUGGUCCCAGCCUUCUCGCUGGCGCCGGCCGGGCAACAUUCCGAGGGGACCGUCCCCUCGGUAAUGGCGAAUGGGACCCA Y
GGCCGGCAUGGUCCCAGCCUCCUCGGUGGCGCCGGCUGGGCAACAUUCCGAGGGGACCGUCCCCUCGGUAAUGGCGCAUGGGACCCA Y
GGCCGGCAUGGUCCCAGCCUCCUCGCUGGGGCCGGCUGGGCAACAUUCCGAGUGGACCGUCCCCUCGGUAAUGGCGAAUGGGACCCA N
GGCCGGAAUGGUCCCAGCCUCAUCGCUGGCGCCGGCUGGGCAACAUUCCGAGGGGACCGUCCCCUCGGUAAUGGCGAAUGGGACCCA N

# input Check this variant for self-cleavage at or above 0.2: GGCCGGCAUGGUCGCAGCCUCCUCGAUGGCGCCGGCUGGGCAACAUUCCGAGGGGACCGUCCCCUCGGUAAUGGCGAAUGGGACCCA
# output Y

# input Check this variant for self-cleavage at or above 0.2: GGCCGGCAUGGUCCCAGCCUCCUCGCUGGCGCCGGCUGGGCAACAUGCCGAGGGGACCGUCCCCUCGGUAAUGGCGAAUGGCACCCA
# output Y

# input Check this variant for self-cleavage at or above 0.2: GGCCGGCAUGGUCCCUGCCUCCUCGCUGGCGCCGGCUGGGCAUCAUUCCGAGGGGACCGUCCCCUCGGUAAUGGCGAAUGGGACCCA
# output Y

# input Check this variant for self-cleavage at or above 0.2: GGCCGGCAUGGUCCCAGCCUCCUCGCUGGCGCCGGCUGGGCAACAUUCCGAGGGGAACGUCACCUCGGUAAUGGCGAAUGGGACCCA
# output Y
